These data points were gathered from patent US20240336608A1.

Target: recombinant IL4I1 (Homo sapiens)
Construct: purchased R&D Systems 5684-AO-020
Sequence (Q96RQ9 22-567): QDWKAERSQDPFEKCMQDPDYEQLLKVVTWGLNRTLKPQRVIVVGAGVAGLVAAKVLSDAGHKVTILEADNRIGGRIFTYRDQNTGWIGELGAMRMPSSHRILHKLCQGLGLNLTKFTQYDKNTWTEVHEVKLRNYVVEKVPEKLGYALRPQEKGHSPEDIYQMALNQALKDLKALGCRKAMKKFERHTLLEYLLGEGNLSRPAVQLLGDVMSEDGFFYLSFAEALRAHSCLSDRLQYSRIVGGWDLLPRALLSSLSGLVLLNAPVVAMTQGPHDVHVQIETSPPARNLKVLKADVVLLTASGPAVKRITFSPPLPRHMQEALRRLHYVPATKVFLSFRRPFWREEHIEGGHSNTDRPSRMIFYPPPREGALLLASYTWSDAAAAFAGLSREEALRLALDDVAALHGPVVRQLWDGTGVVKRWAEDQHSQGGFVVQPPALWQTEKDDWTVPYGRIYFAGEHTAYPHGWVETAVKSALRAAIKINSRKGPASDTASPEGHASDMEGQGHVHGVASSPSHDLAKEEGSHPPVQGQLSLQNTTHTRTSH
Assay: IL4I1 Enzymatic Assay (Amplex Red/HRP coupled detection of H2O2, fluorescence)
Type: biochemical
Conditions: 1 nM recombinant IL4I1; four-hour pre-incubation with compound; 1 mM each Phe, Tyr, Trp; ten-point titration
Text: Interleukin 4 inducible protein 1 (IL4I1) is an L-amino oxidase that catalyzes the oxidation of aromatic residues (Phe, Trp and Tyr): L-amino acid+H2O+O2→2-oxo acid+NH3+H2O2. […] In this assay, the hydrogen peroxide generated by IL4I1 is then detected through a coupled reaction with Amplex Red (10-acetyl-3,7-dihydroxyphenoxazine) and […] (HRP) to produce Resorufin product that could be detected in the form of fluorescence signals. […]
pEC50: −log10 of the molar value.
Parameter: pEC50

[
  {
    "Compound": "Cc1cc(C(=O)NCc2nnc(-c3ccccc3)s2)on1 [Example 25]",
    "System name": "recombinant IL4I1 (Homo sapiens)",
    "Measured": 7.12
  },
  {
    "Compound": "CS(=O)(=O)Cn1cc(C(=O)NCc2nnc(-c3ccccc3)s2)nn1 [Example 308]",
    "System name": "recombinant IL4I1 (Homo sapiens)",
    "Measured": 7.12
  },
  {
    "Compound": "O=C(NCc1nnc(-c2ccccc2)s1)c1cn([C@@H]2CCC[C@H]2O)nn1 [Example 210]",
    "System name": "recombinant IL4I1 (Homo sapiens)",
    "Measured": 6.96
  }
]
